# System Tested: recombinant guanylate cyclase reporter cell line (Rattus norvegicus, UniProt P19686+P20595)
# Construct: expressed in transfected cells
# Sequence (P19686 whole entry): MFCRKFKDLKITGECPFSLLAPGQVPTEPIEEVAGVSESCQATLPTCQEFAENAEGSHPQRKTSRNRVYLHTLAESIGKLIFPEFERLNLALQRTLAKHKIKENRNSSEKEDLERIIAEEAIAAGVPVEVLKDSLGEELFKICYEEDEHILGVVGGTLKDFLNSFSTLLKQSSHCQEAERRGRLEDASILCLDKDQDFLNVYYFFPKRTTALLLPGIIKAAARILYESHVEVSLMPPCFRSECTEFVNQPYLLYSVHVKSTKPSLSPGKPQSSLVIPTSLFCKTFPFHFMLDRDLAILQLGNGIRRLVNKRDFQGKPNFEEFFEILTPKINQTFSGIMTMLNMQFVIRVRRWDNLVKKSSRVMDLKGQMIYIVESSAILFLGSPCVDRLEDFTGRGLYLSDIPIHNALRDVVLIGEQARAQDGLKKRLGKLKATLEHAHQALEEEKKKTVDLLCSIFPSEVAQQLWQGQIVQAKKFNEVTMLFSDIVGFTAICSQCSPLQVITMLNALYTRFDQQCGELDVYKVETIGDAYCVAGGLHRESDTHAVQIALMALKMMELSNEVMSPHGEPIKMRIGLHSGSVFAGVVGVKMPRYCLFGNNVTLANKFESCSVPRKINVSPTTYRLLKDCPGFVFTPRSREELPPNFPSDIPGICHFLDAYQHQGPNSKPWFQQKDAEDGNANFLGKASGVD
# Sequence (P20595 whole entry): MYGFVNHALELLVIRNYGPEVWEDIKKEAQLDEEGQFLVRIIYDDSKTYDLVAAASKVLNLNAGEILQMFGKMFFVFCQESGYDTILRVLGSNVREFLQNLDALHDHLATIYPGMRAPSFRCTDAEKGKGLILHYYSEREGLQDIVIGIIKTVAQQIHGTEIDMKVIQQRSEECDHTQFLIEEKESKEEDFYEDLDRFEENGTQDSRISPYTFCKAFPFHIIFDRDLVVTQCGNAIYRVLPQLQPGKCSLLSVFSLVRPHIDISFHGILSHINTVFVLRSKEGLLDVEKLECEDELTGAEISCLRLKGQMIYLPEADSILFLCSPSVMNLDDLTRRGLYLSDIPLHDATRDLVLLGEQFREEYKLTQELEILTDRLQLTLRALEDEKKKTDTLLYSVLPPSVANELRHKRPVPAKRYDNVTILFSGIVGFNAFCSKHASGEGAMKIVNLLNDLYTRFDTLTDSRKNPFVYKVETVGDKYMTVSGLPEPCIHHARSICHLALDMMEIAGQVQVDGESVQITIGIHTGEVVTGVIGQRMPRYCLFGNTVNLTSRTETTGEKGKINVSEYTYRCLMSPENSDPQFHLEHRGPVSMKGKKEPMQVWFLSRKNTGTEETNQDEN
# Method Summary: Effect on a recombinant guanylate cyclase reporter cell line (B-2)
# Assay type: cell-based
# Measurement Context: MEC = minimum effective concentration, in some cases mean values for individual determinations
Counter-ions that a name gives are not always drawn.
Readout: MEC (µM)
Only the number, expressed in µM, is required.

Return MEC (reported value) for this molecule: Cc1nc2c(OCc3c(F)cccc3F)cccn2c1-c1nc(NCC(C)(N)C(F)(F)F)c2c(n1)NC(=O)C2(C)C (racemic) [Example 40]
3

Return MEC (reported value) for this molecule: Cc1nc2c(OCc3c(F)cccc3F)cccn2c1-c1nc(O)c2c(n1)NC(=O)C2(C)C [Example 5, trifluoroacetate]
3

Return MEC (reported value) for this molecule: Cc1cc(OCc2c(F)cccc2F)c2nc(C)c(-c3nnc4c(n3)NC(=O)C4(C)C)n2c1 [Example 69]
1
